- EXPERIMENTAL SYSTEM: Mm_Fpr1 (Mus musculus)
- Construct: expressed in transfected cells
- Sequence (P33766 1-364): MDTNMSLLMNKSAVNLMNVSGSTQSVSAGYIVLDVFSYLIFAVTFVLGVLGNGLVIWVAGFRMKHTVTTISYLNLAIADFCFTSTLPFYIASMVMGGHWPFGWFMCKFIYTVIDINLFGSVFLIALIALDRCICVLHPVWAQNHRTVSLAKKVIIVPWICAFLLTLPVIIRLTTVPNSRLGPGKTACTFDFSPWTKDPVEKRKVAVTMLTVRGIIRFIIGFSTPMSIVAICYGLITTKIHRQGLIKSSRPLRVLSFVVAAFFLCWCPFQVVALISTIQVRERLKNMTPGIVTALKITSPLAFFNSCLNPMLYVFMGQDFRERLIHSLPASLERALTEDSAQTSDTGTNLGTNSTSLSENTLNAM
- EXPERIMENT SUMMARY: BRET receptor-RLuc8 interaction with Arrestin 3-YFP
- Assay type: cell-based
Where a SMILES comes first, the peptide text is derived from it. The star is where a group is joined. For = O=C*
Quick reference: Emax of the listed items.

INSERT INTO results (compound, result) VALUES
  ('CSCC[C@H](NC(=O)[C@@H](NC(=O)[C@H](CCSC)NC(=O)[C@H](Cc1ccc(O)cc1)NC(=O)[C@H](CCCCN)NC(=O)[C@@H](N)Cc1c[nH]c2ccccc12)C(C)C)C(N)=O', '83.1%'),
  ('CSCC[C@H](NC=O)C(=O)N[C@@H](CC(C)C)C(=O)N[C@@H](Cc1ccccc1)C(=O)O', '83.4%'),
  ('CSCC[C@H](NC(=O)[C@H](Cc1ccc(O)cc1)NC(=O)[C@H](CCCCN)NC(=O)[C@@H](N)Cc1c[nH]c2ccccc12)C(=O)N[C@H](C(=O)N[C@H](CCSC)C(N)=O)C(C)C', '112%'),
  ('CSCC[C@H](NC=O)C(=O)N[C@@H](CC(C)C)C(=O)N[C@@H](Cc1ccccc1)C(=O)N[C@@H](CCCCN)C(=O)O [fMLFK, fMet-Leu-Phe-Lys] (For-MLFK-OH)', '95.2%');

# input for lookup
The value of Emax measured for the compound COc1cc(F)c([C@@H]2CNC(=O)[C@H]2NC(=O)Nc2ccccc2)c(F)c1 turned out to be 18.2%
